Organism: Rattus norvegicus
Experiment: DrugMatrix - Regimen: Daily Repeat
Assay type: toxicity, organism-based, Sprague-Dawley
Design: regimen Daily Repeat, gender Male, age 6-8 weeks
Details: in vivo, po, 0 mg/kg, 120 h, tissue Plasma, route oral GAVAGE, dose level Control, time 5 day, vehicle .5 % CMC
MEASURED_PARAMETER: TOTAL BILIRUBIN (mg/dL)

• Nc1ccc(C(=O)O)c(O)c1 [AMINOSALICYLIC ACID] = 0.55
• COc1cc(NC(C)CCCN)c2ncccc2c1 (stereo not given) [PRIMAQUINE] = 0.68
• CC(C)(C#N)c1cc(Cn2cncn2)cc(C(C)(C)C#N)c1 [ANASTROZOLE] = 0.18
• CC(C)NCC(O)COc1ccc(CC(N)=O)cc1 (stereo not given) [ATENOLOL] = 0.57
• CCN1CCCC1CNC(=O)c1cc(S(N)(=O)=O)ccc1OC (stereo not given) [SULPIRIDE] = 0.18

====

Organism: Rattus norvegicus
Assay: DrugMatrix - Regimen: Daily Repeat
Format: toxicity, organism-based, Sprague-Dawley
Set-up: regimen Daily Repeat, gender Male, age 6-8 weeks
Details: in vivo, po, 0 mg/kg, 120 h, tissue Plasma, route oral GAVAGE, dose level Control, time 5 day, vehicle .5 % CMC
SODIUM listing for selected compounds.
MEASURED_PARAMETER: SODIUM

- NC(=O)NC(=O)Cc1ccccc1 [PHENACEMIDE]: 144.82 MEQ/L
- NCC(CC(=O)O)c1ccc(Cl)cc1 (stereo not drawn) [BACLOFEN]: 143.62 MEQ/L
- O=C(O)CCc1nc(-c2ccccc2)c(-c2ccccc2)o1 [OXAPROZIN]: 142.75 MEQ/L

====

Organism: Rattus norvegicus
Assay: DrugMatrix - Regimen: Daily Repeat
Format: toxicity, organism-based, Sprague-Dawley
Design: regimen Daily Repeat, gender Male, age 6-8 weeks
Conditions: in vivo, po, 0 mg/kg, 72 h, tissue Blood, route oral GAVAGE, dose level Control, time 3 day, vehicle 100 % SALINE
MEASURED_PARAMETER: EOSINOPHIL (%)

* CCO | 0.5
* CC(CN1c2ccccc2Sc2ccccc21)N(C)C (stereo not given) | 0.33
* Cc1ccnc2c1NC(=O)c1cccnc1N2C1CC1 | 0.33
* O=[As][O-].[Na+] [SODIUM ARSENITE] | 0.5
* CCN(CC)N=O | 0

====

Organism: Rattus norvegicus
Assay: DrugMatrix - Regimen: Daily Repeat
Format: toxicity, organism-based, Sprague-Dawley
Parameters: regimen Daily Repeat, gender Male, age 6-8 weeks
Conditions: in vivo, po, 0 mg/kg, 120 h, tissue Blood, route oral GAVAGE, dose level Control, time 5 day, vehicle 100 % WATER
Reported MEAN CORPUSCULAR HEMOGLOBIN CONCENTRATION values for a set of compounds
MEASURED_PARAMETER: MEAN CORPUSCULAR HEMOGLOBIN CONCENTRATION (G/DL)

• CCN(CC)C(=S)SSC(=S)N(CC)CC = 39.3
• CCC1(c2ccccc2)C(=O)NC(=O)NC1=O = 39.33
• Cc1cc(C(C)(C)C)c(O)c(C)c1CC1=NCCN1 = 40.08
• NN [HYDRAZINE] = 38.43
• CC(Cl)(Cl)Cl = 38.52
• CN1C(=O)OC(C)(C)C1=O = 39.44
• Cc1cn([C@H]2C=C[C@@H](CO)O2)c(=O)[nH]c1=O = 38.82
• C1CCN2C[C@@H]3C[C@@H](CN4CCCC[C@@H]34)[C@H]2C1 = 38.52
• C[N+](C)(C)CCOC(N)=O.[Cl-] = 38.82

====

Measured LYMPHOCYTE, listed per entry.
Species on record: Rattus norvegicus
Assay: DrugMatrix - Regimen: Daily Repeat
Format: toxicity, organism-based, Sprague-Dawley
Set-up: regimen Daily Repeat, gender Male, age 6-8 weeks
Conditions: in vivo, po, 0 mg/kg, 72 h, tissue Blood, route oral GAVAGE, dose level Control, time 3 day, vehicle .5 % CMC
MEASURED_PARAMETER: LYMPHOCYTE

• CC(C)(C#N)c1cc(Cn2cncn2)cc(C(C)(C)C#N)c1 = 88%
• COc1cc(/C=C/C(=O)O)ccc1O [FERULATE] = 88.33%
• CC(C)NCC(O)COc1ccc(CC(N)=O)cc1 (configuration not stated) = 76%
• NC(=O)CN1CCCC1=O = 89.83%
• CC(C)Cc1ccc([C@H](C)C(=O)O)cc1 = 76.48%
• CN(C)CCOC(c1ccccc1)c1ccccc1.Cn1c(=O)c2[nH]c(Cl)nc2n(C)c1=O [DIMENHYDRINATE] = 84.83%
• CC(=O)Nc1ccc2c(c1)Cc1ccccc1-2 = 90.17%
• Cc1cc2c(s1)Nc1ccccc1N=C2N1CCN(C)CC1 = 90.33%
• CCN1C[C@]2(COC)[C@H](O)C[C@H](OC)[C@@]34[C@@H]5C[C@@]6(O)[C@H](OC(=O)c7ccccc7)[C@@H]5[C@@](OC(C)=O)([C@@H]([C@H](OC)[C@H]23)[C@@H]14)[C@@H](O)[C@@H]6OC = 84.44%
• Cl.NC[C@H]1CC[C@H](C(=O)Oc2ccc(CCC(=O)O)cc2)CC1 [CETRAXATE HYDROCHLORIDE] = 88.33%
• NC(=O)NC(=O)Cc1ccccc1 [PHENACEMIDE] = 85.5%
• NCC(CC(=O)O)c1ccc(Cl)cc1 (configuration not stated) = 90.17%

====

Attribute: MEAN CORPUSCULAR VOLUME
Species: Rattus norvegicus
Assay: DrugMatrix - Regimen: Daily Repeat
Assay type: toxicity, organism-based, Sprague-Dawley
Set-up: regimen Daily Repeat, gender Male, age 6-8 weeks
Details: in vivo, po, 1500 mg/kg, 72 h, tissue Blood, route oral GAVAGE, dose level High, time 3 day, vehicle .5 % CMC
MEASURED_PARAMETER: MEAN CORPUSCULAR VOLUME (fL)

* COc1ccc(Cl)cc1C(=O)NCCc1ccc(S(=O)(=O)NC(=O)NC2CCCCC2)cc1 [GLYBURIDE] | 59.33
* COc1cc(/C=C/C(=O)O)ccc1O [FERULATE] | 61.23
* CC[C@H]1OC(=O)[C@H](C)[C@@H](O[C@H]2C[C@@](C)(OC)[C@@H](O)[C@H](C)O2)[C@H](C)[C@@H](O[C@@H]2O[C@H](C)C[C@H](N(C)C)[C@H]2O)[C@](C)(O)C[C@@H](C)C(=O)[C@H](C)[C@@H](O)[C@]1(C)O | 64.9
* O=C(O)CCc1nc(-c2ccccc2)c(-c2ccccc2)o1 | 63.17
* Cc1ccc(S(=O)(=O)NC(=O)NN2CCCCCC2)cc1 [TOLAZAMIDE] | 64.5

====

Organism: Rattus norvegicus
Experiment: DrugMatrix - Regimen: Daily Repeat
Format: toxicity, organism-based, Sprague-Dawley
Parameters: regimen Daily Repeat, gender Male, age 6-8 weeks
Conditions: in vivo, po, 0 mg/kg, 72 h, tissue Blood, route oral GAVAGE, dose level Control, time 3 day, […]
MEASURED_PARAMETER: MEAN CORPUSCULAR VOLUME (fL)

* c1ccc2c(c1)Nc1ccccc1S2 [PHENOTHIAZINE] | 63.03
* CC#C[C@]1(O)CC[C@H]2[C@@H]3CCC4=CC(=O)CCC4=C3[C@@H](c3ccc(N(C)C)cc3)C[C@@]21C [MIFEPRISTONE] | 63.58
* CC(C)(c1ccc(O)cc1)c1ccc(O)cc1 [BISPHENOL A] | 60.18
* COC(=O)Nc1nc2ccc(C(=O)c3ccccc3)cc2[nH]1 [MEBENDAZOLE] | 62.75
* Cc1cccc(C)c1NC(=O)C(C)N (stereo not drawn) [TOCAINIDE] | 63.3
* CCOC(=O)C1=C(C)NC(C)=C(C(=O)OCC)C1c1ccccc1/C=C/C(=O)OC(C)(C)C [LACIDIPINE] | 62.38
* O=C(Nc1ccc(Cl)c(Cl)c1)c1cc(Cl)cc(Cl)c1O [3,3',4',5-TETRACHLOROSALICYLANILIDE] | 62.73
* CCC(C)(C)C(=O)O[C@H]1C[C@@H](C)C=C2C=C[C@H](C)[C@H](CC[C@@H]3C[C@@H](O)CC(=O)O3)[C@H]21 [SIMVASTATIN] | 63.58

====

Organism: Rattus norvegicus
Assay: DrugMatrix - Regimen: Daily Repeat
Assay type: toxicity, organism-based, Sprague-Dawley
Parameters: regimen Daily Repeat, gender Male, age 6-8 weeks
Details: in vivo, po, 0 mg/kg, 72 h, tissue Blood, route oral GAVAGE, dose level Control, time 3 day, vehicle 100 % WATER
MEASURED_PARAMETER: MEAN CORPUSCULAR VOLUME (fL)

- NN [HYDRAZINE]: 63.07
- C[N+](C)(C)CCOC(N)=O.[Cl-]: 62.88
- CN1C(=O)OC(C)(C)C1=O: 60.52
- CCN(CC)C(=S)SSC(=S)N(CC)CC: 64.85
- Cc1cn([C@H]2C=C[C@@H](CO)O2)c(=O)[nH]c1=O: 62.88
- CC(Cl)(Cl)Cl: 63.52
- C1CCN2C[C@@H]3C[C@@H](CN4CCCC[C@@H]34)[C@H]2C1: 63.52
- Cc1cc(C(C)(C)C)c(O)c(C)c1CC1=NCCN1: 63
- CCC1(c2ccccc2)C(=O)NC(=O)NC1=O: 62.53
